molecular target: myosin light chain kinase (MLCK) (Gallus gallus, UniProt P11799); construct: Calmodulin-independent myosin light chain kinase(CIM) of greater than 95 percent homogeneity is prepared by trypsin digestion of calmodulin-dependent MLCK; assay: Calcium-Calmodulin Independent Myosin Light Chain Kinase (MLCK) Assay; conditions: calmodulin-independent MLCK (trypsin digested, chicken gizzard); peptide KKRPQRATSNVFS-NH2 50 μM; 100 uM ATP; pH 7.2
Sequence (P11799 1217-1713 limits assumed): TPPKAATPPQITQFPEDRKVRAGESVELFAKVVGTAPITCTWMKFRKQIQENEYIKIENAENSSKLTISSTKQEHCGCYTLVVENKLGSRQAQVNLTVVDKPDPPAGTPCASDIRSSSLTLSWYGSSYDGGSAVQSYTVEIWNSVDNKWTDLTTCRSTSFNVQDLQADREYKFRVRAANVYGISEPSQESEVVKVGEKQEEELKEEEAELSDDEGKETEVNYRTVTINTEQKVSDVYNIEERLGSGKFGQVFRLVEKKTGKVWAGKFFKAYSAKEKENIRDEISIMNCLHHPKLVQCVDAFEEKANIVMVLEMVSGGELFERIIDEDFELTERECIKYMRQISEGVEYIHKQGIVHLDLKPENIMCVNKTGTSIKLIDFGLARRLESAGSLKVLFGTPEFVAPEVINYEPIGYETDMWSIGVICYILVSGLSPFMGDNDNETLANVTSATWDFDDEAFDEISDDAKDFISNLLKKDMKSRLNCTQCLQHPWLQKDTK
Assign IC50 to each entry below.
Give bare numbers, in µM.

Past entries and their recorded results:
- Compound: "O=S(=O)(c1ccc2c(ccc3ccccc32)c1)N1CCCNCC1"
  IC50 (µM): 11
- Compound: "O=S(=O)(c1c2ccccc2cc2ccccc12)N1CCCNCC1"
  IC50 (µM): 5
- Compound: "O=S(=O)(c1cc2ccccc2c2ccccc12)N1CCCNCC1 [Example 18]"
  IC50 (µM): 4.8
- Compound: "O=S(=O)(c1ccc2cc3ccccc3cc2c1)N1CCCNCC1"
  IC50 (µM): 50
- Compound: "O=S(=O)(c1cccc2c1cnc1ccccc12)N1CCCNCC1"
  IC50 (µM): 35
- Compound: "O=S(=O)(c1ccc2c(c1)Cc1cc(Br)ccc1-2)N1CCCNCC1"
  IC50 (µM): 76
- Compound: "O=S(=O)(c1ccc2c(Br)cc3ccccc3c2c1)N1CCCNCC1"
  IC50 (µM): 10
- Compound: "O=S(=O)(c1ccc2c(cnc3ccccc32)c1)N1CCCNCC1"
  IC50 (µM): 65
- Compound: "O=S(=O)(c1cccc2cc3ccccc3cc12)N1CCCNCC1"
  IC50 (µM): 17
- Compound: "O=S(=O)(c1ccc2ncc3ccccc3c2c1)N1CCCNCC1"
  IC50 (µM): 32

Give IC50 for all compounds that follow.
1. O=S(=O)(c1cc2ccccc2c2ccccc12)N1CCCNCC1 [Example 26]
2. O=S(=O)(c1cccc2nc3ccccc3cc12)N1CCCNCC1

[3.5, 100]
